Data origin, for the record: patent US20100184814A1

Assay: Pharmacokinetic study: plasma compound (II) (Losartan) after oral dosing of compounds of formula (I)
Format: in vivo
Settings: male Kumin mice, fasted, single oral gavage dose 5.8 mg/kg referenced to compound (II); compound (II) (Losartan) measured in plasma by LC/MS/MS; read-out: Maximum Blood Concentration (Cmax) of compound (II)

molecule | measurement.unit | Cmax
CCCCc1nc(Cl)c(COC(=O)CN)n1Cc1ccc(-c2ccccc2-c2nn[nH]n2)cc1 [Compound (118)] | nM | 504
